# target.system: delta opioid receptor (Rattus norvegicus)
# Construct: from tissue; host or cells: forebrain of male Wistar rats
# measurement.protocol: Rat brain delta opioid receptor binding assay
# run.parameters: [3H]naltrindole ligand; read-out: δ-binding (Naltrindole ligand) Ki
experimental.endpoint: Ki (nM)

[1] COc1ccc(Cc2nc(-c3cncnc3)cnc2NC[C@@H]2CCCN2)cc1
[2] Clc1ccccc1Oc1nc(-c2cncnc2)cnc1NC[C@@H]1CCCN1
[3] COc1ccc(Oc2nc(-c3cncc(C#N)c3)cnc2NC[C@@H]2CCCN2)cc1F
[4] Clc1ccc(Oc2nc(-c3cncnc3)cnc2NC[C@@H]2CCCN2)cc1
[5] c1ncc(-c2cnc(NC[C@@H]3CCCN3)c(Oc3ccc4c(c3)CCO4)n2)cn1
List these items ordered by Ki, big to small. The reply should contain the labels ordered as requested. 1, 5, 4, 2, 3
(1: 19.9 nM, 5: 4.3 nM, 4: 1.1 nM, 2: 0.7 nM, 3: 0.2 nM)

----------
# target.system: delta opioid receptor (Rattus norvegicus, UniProt P33533)
# Construct: from tissue; host or cells: forebrain of male Wistar rats
# Sequence (P33533 whole entry): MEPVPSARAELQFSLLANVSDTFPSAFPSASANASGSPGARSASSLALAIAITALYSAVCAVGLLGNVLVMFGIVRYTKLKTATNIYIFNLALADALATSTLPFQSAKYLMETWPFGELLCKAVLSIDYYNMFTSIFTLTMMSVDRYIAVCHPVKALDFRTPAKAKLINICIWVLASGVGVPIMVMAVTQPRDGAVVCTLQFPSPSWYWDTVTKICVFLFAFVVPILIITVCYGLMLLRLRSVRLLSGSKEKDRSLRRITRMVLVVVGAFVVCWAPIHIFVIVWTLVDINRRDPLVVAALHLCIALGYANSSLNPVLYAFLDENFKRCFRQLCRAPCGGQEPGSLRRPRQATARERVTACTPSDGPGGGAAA
# measurement.protocol: Rat brain delta opioid receptor binding assay
# run.parameters: rat forebrain membranes; ~4 nM [3H]DPDPE; read-out: δ-binding (DPDPE ligand) Ki
pKi: −log10 of the molar value.
experimental.endpoint: pKi

COc1ccc(Oc2nc(C#Cc3cccnc3)cnc2NC[C@@H]2CCCN2)cc1 8.82
c1ncc(-c2cnc(NC[C@@H]3CCCN3)c(Oc3ccc4c(c3)OCO4)n2)cn1 6.31
COc1ccc(Oc2nc(-c3cncnc3)cnc2NC[C@@H]2CCCN2)cc1 8.57
COc1ccc(Oc2nc(-c3cncnc3)cnc2NC[C@@H]2CCCN2)c(F)c1 8.92
COc1ccc(Oc2nc(-c3ccc(OC)nc3)cnc2NC[C@@H]2CCCN2)cc1 9.22

[1] COc1ccc(Oc2nc(-c3cccnc3)cnc2NC[C@@H]2CCCN2)cc1
[2] COc1ccc(Oc2nc(-c3cncnc3)cnc2NC[C@@H]2CCCN2)cc1F
[3] CCc1ccc(Oc2nc(-c3cncnc3)cnc2NC[C@@H]2CCCN2)cc1
Task for the reader: rank each entry by its pKi, from the minimum upward. The reply should contain the labels ordered as requested. 3, 1, 2
(3: 7.49, 1: 8.68, 2: 9.10)

----------
# target.system: δ-opioid receptor (Mus musculus, UniProt P32300)
# Construct: NG108-15 cell membranes were purchased from Applied Cell Sciences (Rockville, Md.); host or cells: NG108-15 cell membranes (purchased)
# Sequence (P32300 whole entry): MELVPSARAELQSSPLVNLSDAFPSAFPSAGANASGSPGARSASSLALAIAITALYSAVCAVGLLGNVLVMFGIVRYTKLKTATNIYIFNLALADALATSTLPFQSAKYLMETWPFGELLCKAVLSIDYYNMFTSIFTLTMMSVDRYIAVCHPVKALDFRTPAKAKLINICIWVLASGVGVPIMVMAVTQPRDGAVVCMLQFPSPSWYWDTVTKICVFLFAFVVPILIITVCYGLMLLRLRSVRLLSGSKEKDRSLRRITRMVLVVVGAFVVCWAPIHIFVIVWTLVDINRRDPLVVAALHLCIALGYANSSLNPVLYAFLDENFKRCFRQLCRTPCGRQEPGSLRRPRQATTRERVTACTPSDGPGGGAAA
# measurement.protocol: [35S]GTPγS binding assay in NG108-15 cell membranes (delta opioid functional assay)
# Format: biochemical
# run.parameters: 10 μM compound; read-out: GTPγS δ-opioid receptor % Inh @10 μM
experimental.endpoint: inhibition at 10 µM (%)

Worked examples follow.
COCC#Cc1cnc(NC[C@@H]2CCCN2)c(Oc2ccc(OC)cc2)n1 1
COc1ccc(Oc2nc(C#Cc3cccnc3)cnc2NC[C@@H]2CCCN2)cc1 1

[a] COc1ccc(Oc2nc(-c3ccc(OC)nc3)cnc2NC[C@@H]2CCCN2)cc1
[b] COc1ccc(Oc2nc(-c3cccnc3)cnc2NC[C@@H]2CCCN2)cc1
Please indicate which entry, a or b , has the lower recorded inhibition at 10 µM value. Your answer should be the label of the entry you select. b

----------
# target.system: δ-opioid receptor (Mus musculus, UniProt P32300)
# Construct: NG108-15 cell membranes were purchased from Applied Cell Sciences (Rockville, Md.); host or cells: NG108-15 cell membranes (purchased)
# measurement.protocol: [35S]GTPγS binding assay in NG108-15 cell membranes (delta opioid functional assay)
# Type: biochemical
# run.parameters: 200 nM compound; relative to calculated max of SNC80 dose response
experimental.endpoint: GTPγS δ-RelEfficacy @200 nM

Worked examples follow.
molecule	GTPγS δ-RelEfficacy @200 nM
COc1ccc(Oc2nc(-c3cncc(C#N)c3)cnc2NCC2(N)CCCC2)cc1 [Cpd 21]	0.2481
COc1ccc(Oc2nc(-c3cncnc3)cnc2NCC2(N)CCCC2)cc1 [Cpd 22]	0.2384

[A] CCc1ccc(Oc2nc(-c3cncc(C#N)c3)cnc2NC[C@@H]2CCCN2)cc1 [Cpd 37]
[B] COc1ccc(Oc2nc(-c3cncc(C#N)c3)cnc2NC[C@@H]2CCCN2)cc1 [Cpd 24]
[C] N#Cc1cncc(-c2cnc(NC[C@@H]3CCCN3)c(Oc3cccc(Cl)c3)n2)c1 [Cpd 42]
Task for the reader: rank each entry by its GTPγS δ-RelEfficacy @200 nM, from the minimum upward. The reply should contain the labels ordered as requested. B, A, C
(B: 0.1669, A: 0.3353, C: 0.7111)

----------
# target.system: δ-opioid receptor (Mus musculus)
# Construct: NG108-15 cell membranes were purchased from Applied Cell Sciences (Rockville, Md.); host or cells: NG108-15 cell membranes (purchased)
# measurement.protocol: [35S]GTPγS binding assay in NG108-15 cell membranes (delta opioid functional assay)
# Assay type: biochemical
# run.parameters: 200 nM compound; relative to calculated max of SNC80 dose response
experimental.endpoint: GTPγS δ-RelEfficacy @200 nM

N#Cc1ccc(Oc2nc(-c3cncnc3)cnc2NC[C@@H]2CCCN2)cc1 0.1065
Clc1cccc(Oc2nc(-c3cncnc3)cnc2NC[C@@H]2CCCN2)c1 0.2102
COc1ccc(Oc2nc(-c3cncnc3)cnc2NC[C@H](C)N)cc1 0.6890

[P] COc1ccc(Oc2nc(-c3cncc(C#N)c3)cnc2N2CCNCC2)cc1
[Q] COc1ccc(Oc2nc(-c3cncc(C#N)c3)cnc2NC[C@@H]2CCCN2)c(F)c1
Please indicate which entry, P or Q , has the lower recorded GTPγS δ-RelEfficacy @200 nM value. Your answer should be the label of the entry you select. P

----------
# target.system: δ-opioid receptor (Mus musculus, UniProt P32300)
# Construct: NG108-15 cell membranes were purchased from Applied Cell Sciences (Rockville, Md.); host or cells: NG108-15 cell membranes (purchased)
# measurement.protocol: [35S]GTPγS binding assay in NG108-15 cell membranes (delta opioid functional assay)
# Format: biochemical
# run.parameters: read-out: GTPγS δ-opioid receptor EC50
pEC50: −log10 of the molar value.
experimental.endpoint: pEC50

Worked examples follow.
COc1ccc(Oc2nc(-c3cccnc3)cnc2N2CCNCC2)cc1 8.09
COc1ccc(Cc2nc(-c3cccnc3)cnc2NC[C@@H]2CCCN2)cc1 5.14
COc1ccc(Oc2nc(-c3cncc(C#N)c3)cnc2NC[C@@H]2CCCN2)c(F)c1 7.57
COc1ccc(Oc2nc(-c3cccnc3)cnc2NC[C@@H]2CCCN2)cc1 7.53
COc1ccc(Oc2nc(-c3cncnc3)cnc2NC[C@@H]2CCCN2)cc1F 6.83

[I] N#Cc1cncc(-c2cnc(NC[C@@H]3CCCN3)c(Oc3ccc4[nH]ccc4c3)n2)c1
[II] COCC#Cc1cnc(NC[C@@H]2CCCN2)c(Oc2ccc(OC)cc2)n1
From the recorded data, which exceeds the other in pEC50: I or II ? Your answer should be the label of the entry you select. I
(I: 7.41, II: 7.08)

[P] N#Cc1cncc(-c2cnc(NC[C@@H]3CCCN3)c(Oc3ccccc3Cl)n2)c1
[Q] COc1ccc(Oc2nc(-c3cncnc3)cnc2NC[C@H](C)N)cc1
Please indicate which entry, P or Q , has the lower recorded pEC50 value. Your answer should be the label of the entry you select. P
(P: 6.53, Q: 7.30)

----------
# target.system: δ-opioid receptor (Mus musculus, UniProt P32300)
# Construct: NG108-15 cell membranes were purchased from Applied Cell Sciences (Rockville, Md.); host or cells: NG108-15 cell membranes (purchased)
# measurement.protocol: [35S]GTPγS binding assay in NG108-15 cell membranes (delta opioid functional assay)
# Assay type: biochemical
# run.parameters: 200 nM compound; relative to calculated max of SNC80 dose response
experimental.endpoint: GTPγS δ-RelEfficacy @200 nM

N#Cc1cncc(-c2cnc(NC[C@@H]3CCCN3)c(Oc3ccccc3Cl)n2)c1 0.3049

[a] COc1ccc(Oc2nc(-c3cccnc3)cnc2N2CCNCC2)cc1
[b] COc1ccc(Cc2nc(-c3cncc(C#N)c3)cnc2NC[C@@H]2CCCN2)cc1
[c] Clc1ccc(Oc2nc(-c3cncnc3)cnc2NC[C@@H]2CCCN2)cc1
Order the items by recorded GTPγS δ-RelEfficacy @200 nM; the first position goes to the largest value. The reply should contain the labels ordered as requested. a, c, b
(a: 0.7579, c: 0.2150, b: 0.1174)

----------
# target.system: δ-opioid receptor (Mus musculus, UniProt P32300)
# Construct: NG108-15 cell membranes were purchased from Applied Cell Sciences (Rockville, Md.); host or cells: NG108-15 cell membranes (purchased)
# measurement.protocol: [35S]GTPγS binding assay in NG108-15 cell membranes (delta opioid functional assay)
# Type: biochemical
experimental.endpoint: GTPγS δ-opioid receptor Rel Efficacy

Worked examples follow.
molecule	target.system	GTPγS δ-opioid receptor Rel Efficacy
COc1ccc(Oc2nc(-c3cncc(C#N)c3)cnc2N[C@H]2CC[C@@H](N)CC2)cc1 [Cpd 35]	δ-opioid receptor (Mus musculus, UniProt P32300)	1.2053
COc1ccc(Oc2nc(-c3cncc(C#N)c3)cnc2NC[C@@H]2CCCN2)c(F)c1 [Cpd 26]	δ-opioid receptor (Mus musculus, UniProt P32300)	1.0534
N#Cc1cncc(-c2cnc(NC[C@@H]3CCCN3)c(Oc3ccccc3Cl)n2)c1 [Cpd 41]	δ-opioid receptor (Mus musculus, UniProt P32300)	1.2922
COc1ccc(Oc2nc(-c3cncnc3)cnc2NC[C@H](C)N)cc1 [Cpd 20]	δ-opioid receptor (Mus musculus, UniProt P32300)	1.0287

[I] COc1ccc(Oc2nc(-c3cccnc3)cnc2NC[C@@H]2CCCN2)cc1 [Cpd 2]
[II] COc1ccc(Cc2nc(-c3cccnc3)cnc2NC[C@@H]2CCCN2)cc1 [Cpd 16]
Please indicate which entry, I or II , has the lower recorded GTPγS δ-opioid receptor Rel Efficacy value. Your answer should be the label of the entry you select. II
(II: 0.3985, I: 1.0430)
